Molecular target: Interleukin-1 receptor-associated kinase 4 (Homo sapiens, UniProt Q9NWZ3)
Sequence (Q9NWZ3 whole entry): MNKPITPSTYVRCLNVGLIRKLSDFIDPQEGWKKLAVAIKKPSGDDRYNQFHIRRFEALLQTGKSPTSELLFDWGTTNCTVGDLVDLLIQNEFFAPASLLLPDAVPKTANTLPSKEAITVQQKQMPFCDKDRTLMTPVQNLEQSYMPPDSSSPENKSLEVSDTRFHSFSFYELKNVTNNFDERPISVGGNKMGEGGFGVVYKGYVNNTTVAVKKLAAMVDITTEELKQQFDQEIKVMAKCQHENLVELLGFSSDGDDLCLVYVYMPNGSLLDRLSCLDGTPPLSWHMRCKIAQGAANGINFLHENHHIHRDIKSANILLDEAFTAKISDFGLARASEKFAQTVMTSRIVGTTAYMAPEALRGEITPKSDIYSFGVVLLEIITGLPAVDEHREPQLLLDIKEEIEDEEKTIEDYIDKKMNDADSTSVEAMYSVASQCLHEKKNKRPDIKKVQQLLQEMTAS
MEASUREMENT_NAME: pIC50
Schema: pIC50 number; meaning minus log10 of the concentration expressed in molar units.

For CNc1cc(-c2ccc3cc(C#N)cnn23)ncc1-c1nnc(C23CCC(NC(=O)C4CCN(c5cccc6c5C(=O)N(C5CCC(=O)NC5=O)C6=O)CC4)(CC2)CC3)s1 (stereo unspecified) the compound record lists pIC50 as 8.80
